# PROCEDURE_SUMMARY: amyloid nucleation score (Sup35N fusion, yeast selection) (log enrichment); library NNK3; higher = more nucleation; inactive = no reads after selection;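 further: zero at mode of non-aggregating sequences after 7 days selection at 30°C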
METRIC: amyloid nucleation score
One number for each entry.

Worked examples follow.
STNWSILFQDHSTTFFLMCA : 0.279
FMYVRCQIVADTCFGIASWG : -0.032

Field: amyloid nucleation score. Fill in for each record below.
1. AGESEISVRMEKSHSGVASR
2. RMILNMCCTITDRKCHSVSD
3. AHCCSFRAEFV
4. FKVSFIWCCNFKMSCGAYER
5. PMERGMCLMLGSLVG
6. MNRDTYSMWSVKDKMTFI

## Result
-0.436
2.39
1.75
0.446
0.942
-0.124

---

# PROCEDURE_SUMMARY: amyloid nucleation score (Sup35N fusion, yeast selection) (log enrichment); library NNK2; higher = more nucleation; inactive = no reads after selection
Ranges used to classify amyloid nucleation score: 0 = under -0.2, 1 = from -0.2 up to 1, 2 = 1 and over

YNASVDVLHY : 1
FDSFPSS : 1
RSLDVLTTVVMRAFNPTRLR : 1
LHSCLMCRTSMWSVSIWLKL : 1
AWGRARNVRFYFVLRGESGL : 2
LPVHANNGVNMFILIVPPGS : 2

# next substance below
## Task Bin? CFFTSYTRA
## Result 1

---

# PROCEDURE_SUMMARY: amyloid nucleation score (Sup35N fusion, yeast selection) (log enrichment); library NNK3; higher = more nucleation; inactive = no reads after selection
METRIC: amyloid nucleation score

SVFFPVEFTFRVGETLCCFF : 3.01
ARLAFGIGE : inactive
GWFSYSRMSNCSLNSTK : inactive
FIVVQGIAPCGFTS : inactive
HGFEIDTRTDSRQAVNCMCC : inactive
HGIDKGLDVDETR : inactive
CDHYRISWNLKWLVVRMYY : inactive
NMGTGGRLEGPVDSGHSEKF : inactive
FNVYMIITNFLDPL : 2.64
FTFGCSLCTMYTANSHFRGC : 1.87

Field: amyloid nucleation score. Fill in for each record below.
1. IRLVPWFW
2. LLIRVLYLWSLESISNG
3. NDLWIEMFKS
4. NGPEGSLFDLSDFCHFCLNR
5. AYRINRTTDRIIIDSGDVVV
6. SSNILFVIFIAY
7. DNYMRILGLSYPGDFISNFW

## Result
1: inactive; 2: inactive; 3: inactive; 4: 0.955; 5: inactive; 6: 1.08; 7: inactive

Field: amyloid nucleation score. Fill in for each record below.
1. LGLDTSSSVYCQSCGVRFSV
2. TLTYRSSQND

## Result
1: inactive; 2: inactive

Field: amyloid nucleation score. Fill in for each record below.
1. FAISSILSMDAPGLDQIDRF
2. CDIRAAGSKLTDYPLSTRAS

## Result
1. inactive
2. inactive

Field: amyloid nucleation score. Fill in for each record below.
1. TTIFLDS
2. KNQMVFVINY
3. RAQKVPCVIFSYTWIRSMSD

## Result
1. inactive
2. 2.68
3. inactive

---

# PROCEDURE_SUMMARY: amyloid nucleation score (Sup35N fusion, yeast selection) (log enrichment); library NNK2; higher = more nucleation; inactive = no reads after selection
METRIC: amyloid nucleation score
One number for each entry.

HMGLLFKWAYTYRIAWGKLR : -0.451
VAKYLHYMSWVWRFMAWSYV : -1.15
IRDWHWTNVGSCNCCFFCQG : 9.24
RIRASKPVFKAFLTPGSYLF : -1.87
RCGASSCNRLGPPMLNNRAM : -1.6

Field: amyloid nucleation score. Fill in for each record below.
1. TCIVSRRSCTCNRSQSGYRR
2. VVSITNINNMSSMRSEPEYK
3. IDSWCVTHATKIGSYWML

## Result
1: 1.08; 2: 6.98; 3: 0.12
